# MIC listing for each entry below
System: C. tropicalis ATCC 750
ASSAY_DETAILS: Antifungal activity: MIC/MFC, disc-diffusion
Type: cell-based
CONDITION_SUMMARY: Candida tropicalis, ATCC750; read-out: MIC

COMPOUND | MIC
COC(=O)CCSc1ccc2c(c1F)[Si](C)(C)OB2O | > 400 µg/mL
C[Si]1(C)OB(O)c2cc(F)c(SCCC#N)c(F)c21 | > 400 µg/mL
C[Si]1(C)OB(O)c2cc(F)c(SC3CC(=O)N(c4ccc(F)cc4)C3=O)c(F)c21 (centres unmarked) | 200 µg/mL
Cc1cc(NC(=O)CCSc2c(F)cc3c(c2F)[Si](C)(C)OB3O)no1 | > 400 µg/mL
C[Si]1(C)OB(O)c2ccc(SCCS(=O)(=O)c3ccccc3)c(F)c21 | > 400 µg/mL
CC(=O)CSc1ccc2c(c1F)[Si](C)(C)OB2O | > 400 µg/mL
C[Si]1(C)OB(O)c2ccc(SC3CC(=O)NC3=O)c(F)c21 (centres unmarked) | > 400 µg/mL
C[Si]1(C)OB(O)c2ccc(SC(=O)c3ccc(C(F)(F)F)cc3)c(F)c21 | > 50 µg/mL
CC(=O)CCSc1c(F)cc2c(c1F)[Si](C)(C)OB2O | > 400 µg/mL
OC(Cn1cncn1)(Cn1cncn1)c1ccc(F)cc1F [FL, fluconazole, reference compound] | 0.38 µg/mL
C[Si]1(C)OB(O)c2cc(F)c(S(=O)(=O)Cl)c(F)c21 | > 400 µg/mL
